Hello, the source for this data is PubChem BioAssay, in case you need it.

experiment: basal HepG2 mitochondrial membrane potential changes, profiling panel, cell-based, JC-1 fluorescence, 24 h, 100 nL compound (AID 1167); details: higher = more signal; note: test concentration not given here
Each item that follows carries a reported z-score.
# print the numeric value only

Please review the entries below; each comes with its answer.
# z-score (compound: CCCCCN1CC=CC23O[C@@H]4/C=C\CCCOC(=O)C4[C@H]2C(=O)N(CCCCCCO)[C@@H]3C1=O (stereo partly drawn) ) is 0.482

# z-score (compound: COCCOC(=O)N1C(=O)[C@@]2(c3cc(C#CCNC(N)=O)ccc31)[C@H](C(=O)N1CCN(c3ncccn3)CC1)[C@H]1C(=O)O[C@H](c3ccccc3)[C@H](c3ccccc3)N1[C@@H]2c1ccccc1OCCO ) is -1.43

# z-score (compound: CCOC(=O)C1=C[C@@H](CC)N(S(=O)(=O)c2ccc(C)cc2)[C@H]1c1ccccc1 ) is -0.378

# z-score (compound: CCCN1C(=O)[C@@]2(CCC(=O)OC(C)(C)C)N=C(c3ccc(OCCCO)cc3)O[C@H]2c2ccccc21 ) is 0.6

# z-score (compound: CCOC(=O)C[C@H]1[C@H](OC(=O)Cc2ccc3c(c2)OCO3)[C@@H](NC(=O)c2ccc(-c3ccccc3)cc2)c2cc(OCCCO)ccc2N1C(=O)c1ccccc1 ) is 3.09

# z-score (compound: COC(=O)C[C@@H]1C[C@H](C)[C@]2(O1)C(=O)N(Cc1ccccc1)c1ccc(NC(C)=O)cc12 ) is -0.0913

New cases:
# z-score (compound: COC(=O)[C@@]1(Cc2ccc(OC)cc2)[C@H]2c3cc(C(=O)N4CCCC4)n(Cc4ccccn4)c3C[C@H]2CN1C(=O)c1ccccc1 ) is 1.85

# z-score (compound: CCCN1C(=O)[C@]2(COC(c3ccc(OCCCO)cc3)=N2)Cc2ccccc21 ) is -0.0681

# z-score (compound: O=C1O[C@@H](c2ccccc2)[C@@H](c2ccccc2)N2[C@@H](c3ccc(OCCO)cc3)[C@]3(C(=O)Nc4ccc(C#CC5=CCCCC5)cc43)[C@@H](C(=O)O)[C@H]12 ) is -4.12

# z-score (compound: COCCOC(=O)N1C(=O)[C@@]2(c3cc(C#CC4=CCCCC4)ccc31)[C@H](C(=O)N1CCc3cc(OC)c(OC)cc3C1)[C@H]1C(=O)O[C@H](c3ccccc3)[C@H](c3ccccc3)N1[C@@H]2c1ccccc1OCCO ) is 0.0701

# z-score (compound: [N-]=[N+]=NCc1ccccc1C[C@]1(C(=O)NCCN2CCOCC2)N=C(c2ccc(OCCCO)cc2)O[C@H]1c1ccccc1N=[N+]=[N-] ) is 0.815

# z-score (compound: CC(C)N1CC=CC23O[C@@H]4C=CCOC(=O)[C@@H]4[C@H]2C(=O)N(CCO)[C@@H]3C1=O (stereo partly drawn) ) is -0.38
